Semi-quantitative analysis of proteins binding to different plaque particles: Tau for assorted molecules
- System: Tau plaque particles
- experiment_notes: Mass spectroscopy proteomics, semi-quantitative binding affinity of serum proteins (plaqueproteome, Table 2)
- Set-up: species or system human
- condition_description: higher number = stronger affinity
property_name: Semi-quantitative analysis of proteins binding to different plaque particles: Tau

{"columns": ["molecule", "recorded_value"],
 "data": [
  ["Serpin B3 (protein) MNSLSEANTKFMFDLFQQFRKSKENNIFYSPISITSALGMVLLGAKDNTAQQIKKVLHFDQVTENTTGKAATYHVDRSGNVHHQFQKLLTEFNKSTDAYELKIANKLFGEKTYLFLQEYLDAIKKFYQTSVESVDFANAPEESRKKINSWVESQTNEKIKNLIPEGNIGSNTTLVLVNAIYFKGQWEKKFNKEDTKEEKFWPNKNTYKSIQMMRQYTSFHFASLEDVQAKVLEIPYKGKDLSMIVLLPNEIDGLQKLEEKLTAEKLMEWTSLQNMRETRVDLHLPRFKVEESYDLKDTLRTMGMVDIFNGDADLSGMTGSRGLVLSGVLHKAFVEVTEEGAEAAAATAVVGFGSSPTSTNEEFHCNHPFLFFIRQNKTNSILFYGRFSSP", 0],
  ["Ig kappa chain V-I region BAN (protein) DIQMTQSPSSLSASVGDRVTITCRASQGISNYLAWFQQKPGKAPKSLIYAASSLQSGVPSKFSGSGSGTDFTLTISSLQPEDFATYYCQQYNSYP", 2],
  ["CD5 antigen-like (protein) SPSGVRLVGGLHRCEGRVEVEQKGQWGTVCDDGWDIKDVAVLCRELGCGAASGTPSGILYEPPAEKEQKVLIQSVSCTGTEDTLAQCEQEEVYDCSHDEDAGASCENPESSFSPVPEGVRLADGPGHCKGRVEVKHQNQWYTVCQTGWSLRAAKVVCRQLGCGRAVLTQKRCNKHAYGRKPIWLSQMSCSGREATLQDCPSGPWGKNTCNHDEDTWVECEDPFDLRLVGGDNLCSGRLEVLHKGVWGSVCDDNWGEKEDQVVCKQLGCGKSLSPSFRDRKCYGPGVGRIWLDNVRCSGEEQSLEQCQHRFWGFHDCTHQEDVAVICSG", 3],
  ["Alpha-2-HS-glycoprotein (protein) chain 1: APHGPGLIYRQPNCDDPETEEAALVAIDYINQNLPWGYKHTLNQIDEVKVWPQQPSGELFEIEIDTLETTCHVLDPTPVARCSVRQLKEHAVEGDCDFQLLKLDGKFSVVYAKCDSSPDSAEDVRKVCQDCPLLAPLNDTRVVHAAKAALAAFNAQNNGSNFQLEEISRAQLVPLPPSTYVEFTVSGTDCVAKEATEAAKCNLLAEKQYGFCKATLSEKLGGAEVAVTCMVFQTQPVSSQPQPEGANEAVPTPVVDPDAPPSPPLGAPGLPPAGSPPDSHVL chain 2: TVVQPSVGAAAGPVVPPCPGRIRHFKV", 10],
  ["Platelet factor 4 variant (protein) FARAEAEEDGDLQCLCVKTTSQVRPRHITSLEVIKAGPHCPTAQLIATLKNGRKICLDLQALLYKKIIKEHLES", 0],
  ["Isoform 2 of Nucleophosmin (protein) MEDSMDMDMSPLRPQNYLFGCELKADKDYHFKVDNDENEHQLSLRTVSLGAGAKDELHIVEAEAMNYEGSPIKVTLATLKMSVQPTVSLGGFEITPPVVLRLKCGSGPVHISGQHLVAVEEDAESEDEEEEDVKLLSISGKRSAPGGGSKVPQKKVKLAADEDDDDDDEEDDDEDDDDDDFDDEEAEEKAPVKKGQESFKKQEKTPKTPKGPSSVEDIKAKMQASIEKGGSLPKVEAKFINYVKNCFRMTDQEAIQDLWQWRKSL", 0],
  ["Ig lambda chain V-III region (protein) SELTQDPAVSVALGQTVRITCQGDSLRSYYASWYQQKPGQAPVLVIYGKNNRPSGIPDRFSGSSSGNTASLTITGAQAEDEADYYCNSRDSS", 2],
  ["Thioredoxin (protein) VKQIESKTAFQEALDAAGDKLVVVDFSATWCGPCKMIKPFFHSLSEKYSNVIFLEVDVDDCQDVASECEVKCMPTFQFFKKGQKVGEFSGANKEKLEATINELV", 0],
  ["Ig heavy chain V-I region HG3 (protein) QVQLVQSGAEVKKPGASVKVSCKASGYTFTSYYMHWVRQAPGQGLEWMGIINPSGGSTSYAQKFQGRVTMTRDTSTSTVYMELSSLRSEDTAVYYCAR", 1]
]}
